Study System: human JAK2 (Homo sapiens (Human))
Sequence (O60674 whole entry): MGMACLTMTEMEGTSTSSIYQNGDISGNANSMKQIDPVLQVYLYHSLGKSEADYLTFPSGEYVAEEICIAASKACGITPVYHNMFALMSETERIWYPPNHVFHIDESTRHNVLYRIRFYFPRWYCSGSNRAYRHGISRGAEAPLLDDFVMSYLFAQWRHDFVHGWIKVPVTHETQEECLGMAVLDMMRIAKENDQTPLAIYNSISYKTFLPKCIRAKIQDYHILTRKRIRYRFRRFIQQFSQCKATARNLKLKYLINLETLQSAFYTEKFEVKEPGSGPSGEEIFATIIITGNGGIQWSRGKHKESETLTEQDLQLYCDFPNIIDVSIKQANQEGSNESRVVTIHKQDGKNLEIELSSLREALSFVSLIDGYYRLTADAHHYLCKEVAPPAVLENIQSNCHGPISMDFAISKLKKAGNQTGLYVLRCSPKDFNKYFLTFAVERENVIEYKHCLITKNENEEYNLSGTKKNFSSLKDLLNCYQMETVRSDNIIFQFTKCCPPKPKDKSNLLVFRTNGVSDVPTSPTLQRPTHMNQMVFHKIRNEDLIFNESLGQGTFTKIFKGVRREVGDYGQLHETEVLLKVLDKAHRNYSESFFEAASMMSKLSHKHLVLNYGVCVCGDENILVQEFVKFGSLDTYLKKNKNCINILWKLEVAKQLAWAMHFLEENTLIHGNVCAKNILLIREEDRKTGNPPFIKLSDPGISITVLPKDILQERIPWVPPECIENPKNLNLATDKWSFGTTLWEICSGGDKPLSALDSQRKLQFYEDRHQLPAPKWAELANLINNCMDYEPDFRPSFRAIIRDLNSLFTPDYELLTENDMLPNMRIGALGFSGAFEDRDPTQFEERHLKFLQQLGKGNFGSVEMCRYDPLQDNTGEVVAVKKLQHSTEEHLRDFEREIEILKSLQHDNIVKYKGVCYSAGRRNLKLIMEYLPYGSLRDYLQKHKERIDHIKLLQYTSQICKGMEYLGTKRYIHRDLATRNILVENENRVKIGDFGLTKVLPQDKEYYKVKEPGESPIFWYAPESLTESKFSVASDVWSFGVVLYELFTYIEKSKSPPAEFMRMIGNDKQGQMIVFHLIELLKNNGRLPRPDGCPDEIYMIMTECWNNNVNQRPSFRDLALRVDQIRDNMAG
Outcome Measure: IC50

// below: answered compounds
compound="CCC(=O)c1cnc(Nc2ncc(S(C)(=O)=O)cc2F)cc1Nc1cccc(-c2ncn(C)n2)c1OC [Compound 13Z]" endpoint_value="≥ 500 nM"
compound="CCC(=O)c1cnc(Nc2ccn(CC3COC3)n2)cc1Nc1cccc(-c2ncn(C)n2)c1OC [Compound 21R]" endpoint_value="≥ 500 nM"
compound="CCC(=O)c1cnc(Nc2ccc(CCN(C)C)cn2)cc1Nc1cccc(-c2ncn(C)n2)c1OC [Compound 11A]" endpoint_value="≥ 500 nM"
compound="CCC(=O)c1cnc(Nc2cnc(OCCN3CC[C@H](F)C3)cn2)cc1Nc1cccc(-c2ncn(C)n2)c1OC [Compound 18XX]" endpoint_value="≥ 500 nM"
compound="CCC(=O)c1cnc(Nc2cnc(C(F)(F)CN(C)C)cn2)cc1Nc1cccc(-c2ncn(C)n2)c1OC [Compound 19C]" endpoint_value="≥ 500 nM"

The measured IC50 that CCC(=O)c1cnc(Nc2ccn(-c3ccccn3)n2)cc1Nc1cccc(-c2ncn(C)n2)c1OC [Compound 21E] showed for human JAK2 (Homo sapiens (Human)) is ≥ 500 nM

The measured IC50 that CCC(=O)c1cnc(Nc2ccc(CN(C)C)c(C(F)(F)F)n2)cc1Nc1cccc(-c2ncn(C)n2)c1OC showed for human JAK2 (Homo sapiens (Human)) is ≥ 500 nM

The measured IC50 that CCC(=O)c1cnc(Nc2cc(CN)ncn2)cc1Nc1cccc(-c2ncn(C)n2)c1OC showed for human JAK2 (Homo sapiens (Human)) is ≥ 500 nM

The measured IC50 that CCC(=O)c1cnc(NC(=O)[C@@H]2C[C@@H]2NC(C)=O)cc1Nc1cccc(-c2ncn(C)n2)c1OC [Compound 22K] showed for human JAK2 (Homo sapiens (Human)) is ≥ 500 nM

The measured IC50 that CCC(=O)c1cnc(Nc2cnc(OCCCO)cn2)cc1Nc1cccc(-c2ncn(C)n2)c1OC [Compound 18Q] showed for human JAK2 (Homo sapiens (Human)) is ≥ 500 nM

The measured IC50 that CCC(=O)c1cnc(NC(=O)CC2CC2)cc1Nc1cccc(-c2ncn(C)n2)c1OC [Compound 23B] showed for human JAK2 (Homo sapiens (Human)) is ≥ 500 nM

###

Study System: TYK2 JH2 domain (Homo sapiens (Human), UniProt P29597)
Sequence (P29597 589-875): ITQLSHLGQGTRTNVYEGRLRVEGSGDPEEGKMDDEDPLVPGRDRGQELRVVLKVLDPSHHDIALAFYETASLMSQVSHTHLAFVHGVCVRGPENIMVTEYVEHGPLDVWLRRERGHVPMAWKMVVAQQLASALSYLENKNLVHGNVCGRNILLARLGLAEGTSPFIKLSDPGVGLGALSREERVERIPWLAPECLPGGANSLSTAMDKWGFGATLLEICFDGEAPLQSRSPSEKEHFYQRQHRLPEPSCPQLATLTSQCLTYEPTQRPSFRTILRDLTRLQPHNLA
Experimental Protocol: TYK2 JH2 NanoBRET assay
Type: binding
Experimental Parameters: Table 20, read-out: TYK2 IC50
Outcome Measure: IC50

// below: answered compounds
compound="CCC(=O)c1cnc(Nc2ccc(S(C)(=O)=O)cn2)cc1Nc1cccc(C(C)O)c1OC (stereo not drawn) [Compound 13Q]" endpoint_value="5 to 50 nM"
compound="CCC(=O)c1cnc(NC(=O)C2CC2)cc1Nc1cc(COC)cc(-c2ncn(C)n2)c1OC [Compound 25E]" endpoint_value="50 to 500 nM"
compound=CCC(=O)c1cnc(Nc2ccc(CNC)cn2)cc1Nc1cccc(-c2ncn(C)n2)c1OC endpoint_value="< 5 nM"
compound="CCC(=O)c1cnc(Nc2ccc(-n3ccnc3)cn2)cc1Nc1cccc(-c2ncn(C)n2)c1OC [Compound 15I]" endpoint_value="< 5 nM"
compound=CCC(=O)c1cnc(Nc2ccc(C3(NC)CC3)cn2)cc1Nc1cccc(-c2ncn(C)n2)c1OC endpoint_value="< 5 nM"

The measured IC50 that CCC(=O)c1cnc(Nc2cccc(C(=O)NC)n2)cc1Nc1cccc(-c2ncn(C)n2)c1OC showed for TYK2 JH2 domain (Homo sapiens (Human), UniProt P29597) is < 5 nM

The measured IC50 that CCC(=O)c1cnc(Nc2ccc(CN3CCS(=O)(=O)CC3)cn2)cc1Nc1cccc(-c2ncn(C)n2)c1OC showed for TYK2 JH2 domain (Homo sapiens (Human), UniProt P29597) is < 5 nM

The measured IC50 that CCC(=O)c1cnc(Nc2cnc(C(N)C(F)(F)F)cn2)cc1Nc1cccc(-c2ncn(C)n2)c1OC (stereo not drawn) showed for TYK2 JH2 domain (Homo sapiens (Human), UniProt P29597) is 5 to 50 nM

The measured IC50 that CCC(=O)c1cnc(Nc2cnc(O[C@@H]3C[C@H](C)N(C)C3)cn2)cc1Nc1cccc(-c2ncn(C)n2)c1OC [Compound 18MMM] showed for TYK2 JH2 domain (Homo sapiens (Human), UniProt P29597) is 5 to 50 nM

The measured IC50 that CCC(=O)c1cnc(Nc2cc(C(N)=O)ccn2)cc1Nc1cccc(-c2ncn(C)n2)c1OC showed for TYK2 JH2 domain (Homo sapiens (Human), UniProt P29597) is < 5 nM

The measured IC50 that CCC(=O)c1cnc(Nc2ccc(CN3CCCC3)nn2)cc1Nc1cccc(-c2ncn(C)n2)c1OC showed for TYK2 JH2 domain (Homo sapiens (Human), UniProt P29597) is 5 to 50 nM

The measured IC50 that CCC(=O)c1cnc(Nc2ccn(C3CC(F)(F)C3)n2)cc1Nc1cccc(-c2ncn(C)n2)c1OC [Compound 21GG] showed for TYK2 JH2 domain (Homo sapiens (Human), UniProt P29597) is 5 to 50 nM

The measured IC50 that CCC(=O)c1cnc(Nc2ccc(O[C@H]3CN(C)C[C@@H]3F)cn2)cc1Nc1cccc(-c2ncn(C)n2)c1OC showed for TYK2 JH2 domain (Homo sapiens (Human), UniProt P29597) is < 5 nM

The measured IC50 that CCC(=O)c1cnc(Nc2ccn(S(=O)(=O)C3CC3)n2)cc1Nc1cccc(-c2ncn(C)n2)c1OC [Compound 21D] showed for TYK2 JH2 domain (Homo sapiens (Human), UniProt P29597) is 5 to 50 nM

The measured IC50 that CCC(=O)c1cnc(Nc2cnc(O[C@@H]3CCN(CC(F)F)C3)cn2)cc1Nc1cccc(-c2ncn(C)n2)c1OC showed for TYK2 JH2 domain (Homo sapiens (Human), UniProt P29597) is 5 to 50 nM
